Exercise: for every item that follows, state its recorded activity coefficient.
ASSAY NAME: activity coefficient (dimensionless); of the first substance listed, at infinite dilution; xn = mol fraction of the nth substance listed
CONDITION DETAILS: 358.15 K; 101.33 kPa; Liquid; Chromatography; x1 = 0
Returns: the value as a bare number; no unit string appended.

So what does the record say about activity coefficient for C=CCCCCC [1-heptene] + CCCCCCCCCCCCn1cc[n+](C)c1.O=S(=O)([N-]S(=O)(=O)C(F)(F)F)C(F)(F)F ?
2.8

Request: COC(C)=O [methyl ethanoate] + CCCCCCCCCCCCn1cc[n+](C)c1.O=S(=O)([N-]S(=O)(=O)C(F)(F)F)C(F)(F)F
0.586

Request: c1ccncc1 [pyridine] + CCCCCCCCCCCCn1cc[n+](C)c1.O=S(=O)([N-]S(=O)(=O)C(F)(F)F)C(F)(F)F
0.451

Request: C1=CCCCC1 [cyclohexene] + CCCCCCCCCCCCn1cc[n+](C)c1.O=S(=O)([N-]S(=O)(=O)C(F)(F)F)C(F)(F)F
1.68

---

Exercise: for every item that follows, state its recorded activity coefficient.
ASSAY NAME: activity coefficient (dimensionless); of the first substance listed, at infinite dilution; xn = mol fraction of the nth substance listed
CONDITION DETAILS: 318.15 K; 101.33 kPa; Liquid; Chromatography; x1 = 0
Returns: the value as a bare number; no unit string appended.

So what does the record say about activity coefficient for CCCOCCC [dipropyl ether] + CCCCCCCCCCCCn1cc[n+](C)c1.O=S(=O)([N-]S(=O)(=O)C(F)(F)F)C(F)(F)F ?
1.67

Request: CCC(C)(C)C [2,2-dimethylbutane] + CCCCCCCCCCCCn1cc[n+](C)c1.O=S(=O)([N-]S(=O)(=O)C(F)(F)F)C(F)(F)F
2.83

Request: CC(C)=O [acetone] + CCCCCCCCCCCCn1cc[n+](C)c1.O=S(=O)([N-]S(=O)(=O)C(F)(F)F)C(F)(F)F
0.353

Request: Cc1ccccc1C [1,2-dimethylbenzene] + CCCCCCCCCCCCn1cc[n+](C)c1.O=S(=O)([N-]S(=O)(=O)C(F)(F)F)C(F)(F)F
0.812

Request: COC(C)(C)C [2-methoxy-2-methylpropane] + CCCCCCCCCCCCn1cc[n+](C)c1.O=S(=O)([N-]S(=O)(=O)C(F)(F)F)C(F)(F)F
0.93

Request: CC(C)c1ccccc1 [isopropylbenzene] + CCCCCCCCCCCCn1cc[n+](C)c1.O=S(=O)([N-]S(=O)(=O)C(F)(F)F)C(F)(F)F
1.15

Request: C=CCCCCCC [oct-1-ene] + CCCCCCCCCCCCn1cc[n+](C)c1.O=S(=O)([N-]S(=O)(=O)C(F)(F)F)C(F)(F)F
3.03

Request: C#CCCCCC [1-heptyne] + CCCCCCCCCCCCn1cc[n+](C)c1.O=S(=O)([N-]S(=O)(=O)C(F)(F)F)C(F)(F)F
1.47

Request: CCOC(C)(C)C [2-ethoxy-2-methylpropane] + CCCCCCCCCCCCn1cc[n+](C)c1.O=S(=O)([N-]S(=O)(=O)C(F)(F)F)C(F)(F)F
1.55

Request: C1CCCCCC1 [cycloheptane] + CCCCCCCCCCCCn1cc[n+](C)c1.O=S(=O)([N-]S(=O)(=O)C(F)(F)F)C(F)(F)F
2.43

Request: CCC(C)(C)OC [2-methoxy-2-methylbutane] + CCCCCCCCCCCCn1cc[n+](C)c1.O=S(=O)([N-]S(=O)(=O)C(F)(F)F)C(F)(F)F
1.11

Request: CC1CCCCC1 [methylcyclohexane] + CCCCCCCCCCCCn1cc[n+](C)c1.O=S(=O)([N-]S(=O)(=O)C(F)(F)F)C(F)(F)F
2.42

Request: C=Cc1ccccc1 [styrene] + CCCCCCCCCCCCn1cc[n+](C)c1.O=S(=O)([N-]S(=O)(=O)C(F)(F)F)C(F)(F)F
0.632
